B1: EEHEE_rd4_0647 (parent)
chain: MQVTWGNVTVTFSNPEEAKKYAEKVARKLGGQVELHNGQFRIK

# Variants of: B1
# Experimental Protocol: folding stability dG (cDNA display proteolysis); higher = more stable
# Cond: PBS, room temperature
Reported folding stability dG values for a set of variants
Record the value in kcal/mol, omitting the unit from your answer.

Below: 3 variants and their reported folding stability dG.
{"Residue Change": "R27Q", "Quantity Kind": "folding stability dG", "Unit Info": "kcal/mol", "Recorded Number": 2.64}
{"Residue Change": "R41T", "Quantity Kind": "folding stability dG", "Unit Info": "kcal/mol", "Recorded Number": 2.84}
{"Residue Change": "K19P", "Quantity Kind": "folding stability dG", "Unit Info": "kcal/mol", "Recorded Number": 0.106}

Supply reported folding stability dG belonging to this variant: Q2A 2.64

Supply reported folding stability dG belonging to this variant: V33A 1.82

Supply reported folding stability dG belonging to this variant: R27M 2.59

Supply reported folding stability dG belonging to this variant: P15A 2.89

Supply reported folding stability dG belonging to this variant: E34R 1.78

Supply reported folding stability dG belonging to this variant: Q39G 3.07

Supply reported folding stability dG belonging to this variant: F12N -0.258

Supply reported folding stability dG belonging to this variant: M1C 3.6

Supply reported folding stability dG belonging to this variant: R41A 2.05

Supply reported folding stability dG belonging to this variant: M1I 3.13

Supply reported folding stability dG belonging to this variant: K43C 3.45

Supply reported folding stability dG belonging to this variant: T11M 2.64

Supply reported folding stability dG belonging to this variant: E34A 1.94

Supply reported folding stability dG belonging to this variant: G38V 0.809
